Measured values drawn from PubChem BioAssay (EPA / NIEHS) for this set.

- Assayed Target: human Neurokinin, NK2 Receptor, TACR2 (gene 6865)
- Procedure Text: NVS_GPCR_hNK2: NovaScreen (NVS) G Protein-Coupled Receptor Assay for human Neurokinin, NK2 Receptor (AID 2283278);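 note: actives reduce bound radioligand signal relative to DMSO baseline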
Inconclusive results are not listed. Activity calls are given as the source filed them. Rule for the calls: active = hit-call score of the fitted dose curve at least 0.9, where 1 is the maximum; inconclusive = response in the unintended direction; inactive = score below 0.9.
Outcomes: active, inactive

> print(dat)
                           substance.smiles  class.assignment
1                        OCc1c[nH]c2ccccc12            active
2  C=CCc1cc(S(=O)(=O)c2ccc(O)c(CC=C)c2)ccc1O            active
3                                CCCCCCCCCC          inactive
4     CCn1nc(C)c2c1C(=O)NCC(c1ccc(O)cc1)=N2          inactive
5                CCN(CC)C(=S)SSC(=S)N(CC)CC            active
6                           NNC(=O)c1ccncc1            active
7  c1ccc(C(O[C@@H]2CCCN(CCc3ccc4c(c3)OCO4)C2)c2ccccc2)cc1            active
